System: L1210 leukemia ip in BDF1 mice, survival T/C
assay_remarks: NCI In Vivo Anticancer Drug Screen. Data for tumor model L1210 Leukemia (intraperitoneal) in B6D2F1 (BDF1) mice
condition_label: endpoint: mean survival time; dose: 200.0 mg/kg/injection; schedule: Q01DX005 (ip); vehicle: saline; higher = longer survival
Toxic doses and inconclusive results are not listed.
observation_type: T/C

These recorded examples may help you get a feel for the data.
{"columns": ["molecule", "value_observed"],
 "data": [
  ["CC(C)c1nc2c(=O)[nH]cnc2o1", "100 % of control"],
  ["CC1CN=C(c2ccc(O)cc2)S1 (centres undefined)", "104 % of control"],
  ["Cn1cnc2c(=O)[nH]nnc21", "112 % of control"]
]}

Pending molecule:
Asked: State recorded T/C with L1210 leukemia ip in BDF1 mice, survival T/C, entry Nc1ncnc2c1ncn2C1OC(C(=O)NCC(=O)O)C(O)C1O (centres undefined) , no comment.
Given back: 100 % of control

Values were extracted from PubChem BioAssay AID248.
